Tested on: U87 cells
Test: U87 cell assay (antiproliferative/cytotoxicity)
Type: cell-based
Details: U-87MG human glioblastoma cells
pEC50: −log10 of the molar value.
Would you please tag the item 1 when its pEC50 is 7 or above, and -1 when it is below?

Decide: pEC50 of Cc1ncc(C#Cc2c(C)ncnc2N2CCN(C)C(=O)C2)cc1NS(=O)(=O)c1ccccc1 [Example I-60] >= 7?
-1

Decide: pEC50 of Cc1ncc(C#Cc2c(C)ncnc2N2CCOCC2)cc1NS(=O)(=O)c1cc(F)cc(F)c1 [Example I-31] >= 7?
-1

Decide: pEC50 of COc1cccc(S(=O)(=O)Nc2cc(C#Cc3c(C)ncnc3N3CCOCC3)cnc2C)c1 [Example I-4] >= 7?
-1

Decide: pEC50 of Cc1ncc(C#Cc2c(C)ncnc2N2CCOCC2)cc1NS(=O)(=O)N1CCCC1 [Example I-64] >= 7?
-1

Decide: pEC50 of COc1ncc(C#Cc2c(C)ncnc2N2CCOCC2)cc1NS(=O)(=O)c1ccc(C)o1 [Example I-89] >= 7?
1

Decide: pEC50 of COc1ncc(C#Cc2c(C)ncnc2N2CCOCC2)cc1NS(=O)(=O)c1ccccc1C(F)(F)F [Example I-83] >= 7?
1

Decide: pEC50 of Cc1ncc(C#Cc2c(C)ncnc2N2CCOCC2)cc1NS(=O)(=O)c1ccccc1 [Example I-40] >= 7?
-1

Decide: pEC50 of Cc1ncc(C#Cc2c(C)ncnc2N2CCOCC2)cc1NS(=O)(=O)c1c(F)cccc1F [Example I-7] >= 7?
-1

Decide: pEC50 of Cc1ncc(C#Cc2c(C)ncnc2N2CCOCC2)cc1NS(=O)(=O)c1ccccc1Br [Example I-8] >= 7?
-1

Decide: pEC50 of Cc1ncc(C#Cc2c(C)ncnc2N2CCCCC2)cc1NS(=O)(=O)c1ccccc1 [Example I-63] >= 7?
-1

Decide: pEC50 of Cc1ncc(C#Cc2c(C)ncnc2N2CCOCC2)cc1NS(=O)(=O)C1CCCCC1 [Example I-39] >= 7?
-1

Decide: pEC50 of Cc1ncnc(N2CCOCC2)c1C#Cc1cncc(NS(=O)(=O)c2cccs2)c1 [Example I-21] >= 7?
-1

Decide: pEC50 of COCCN(C)c1ncnc(C)c1C#Cc1cnc(C)c(NS(=O)(=O)c2ccccc2)c1 [Example I-71] >= 7?
-1
